assay-text: NCI Yeast Anticancer Drug Screen. Data for the sgs1 mgt1 strain (AID 161);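 further: 0% = growth of cultures given vehicle only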
test-conditions: S. cerevisiae sgs1 mgt1 strain, at 5.0 µM (retest, dose inferred, filed as 0.5), stronger effect = higher value
About 79,000 compounds went through this panel and 15% of them were active in at least one assay; those are over-represented in the sample as a whole.
experimental-readout: growth inhibition (%)
Your answer should be a plain number; it is taken to be in %.

query: Write down growth inhibition measured for item `O=C1Nc2ccc(Br)cc2C1=O`
result: -5

query: Write down growth inhibition measured for item `O=C(O)CCCOc1cc(-c2ccccc2F)nc2cc3c(cc12)OCO3`
result: 13

query: Write down growth inhibition measured for item `CC1=CC[C@@H]2[C@@H](CC[C@@]2(C)O)C(C)(C)[C@H]1CC[C@@H]1[C@@]2(C)CC[C@@H](O)C(C)(C)O[C@@H]2CC[C@]1(C)O`
result: 4

query: Write down growth inhibition measured for item `Cn1c(COC(=O)NC2CCCCC2)c(COC(=O)NC2CCCCC2)c2ccc3cc(Cl)c(Cl)cc3c21`
result: -3

query: Write down growth inhibition measured for item `Cc1cc2nc(CC(=O)c3ccncc3)c(=O)[nH]c2cc1C`
result: 1

---

assay-text: NCI Yeast Anticancer Drug Screen. Data for the bub3 strain (AID 167)
test-conditions: S. cerevisiae bub3 mutant strain, at 50.0 µM (retest, dose inferred, filed as 5.0), stronger effect = higher value
This is part of a sample that, as a whole, favours compounds with a hit. Of some 79,000 tested, about 15% had one in any assay.
Parameter threshold = 90%. Response is 1 (yes) when growth inhibition meets or exceeds it, else 0 (no).

query: Please check the record `CC(C)(C)S(=O)(=O)O.[Ag]` and state if its growth inhibition is at or above 90%.
result: 1 (yes)

query: Please check the record `O=C(Nc1ccc(Cl)c(Cl)c1)Nc1ccccc1O` and state if its growth inhibition is at or above 90%.
result: 0 (no)

query: Please check the record `CC(C)=C1C=C2CC[C@@H]3[C@](C)(CCC[C@@]3(C)C(=O)O)[C@H]2CC1` and state if its growth inhibition is at or above 90%.
result: 1 (yes)

query: Please check the record `CCN(CC)CCNc1ccc([N+](=O)[O-])c2sc3ccccc3c(=O)c12` and state if its growth inhibition is at or above 90%.
result: 1 (yes)

query: Please check the record COc1cc(NCc2ccc3nc(N)nc(N)c3c2C)cc(OC)c1OC (tested in a mixture with another compound) and state if its growth inhibition is at or above 90%.
result: 0 (no)

query: Please check the record `CCCCCCN(CCCCCC)CCCNc1nccc2ccccc12` and state if its growth inhibition is at or above 90%.
result: 0 (no)

query: Please check the record CCCCC(CC)CNC(=O)CI (stereo not given) and state if its growth inhibition is at or above 90%.
result: 0 (no)

query: Please check the record `CSc1nc(C)c(C(=O)CCN2CCN(c3ccccn3)CC2)s1` and state if its growth inhibition is at or above 90%.
result: 1 (yes)

query: Please check the record `C=c1c2ccccc2oc2nc3[nH]c(N)c(C#N)c(N)c3c(=N)c12` and state if its growth inhibition is at or above 90%.
result: 0 (no)

query: Please check the record N#CC(c1ccccc1)C(c1ccccc1)c1ccccc1 (stereo not given) and state if its growth inhibition is at or above 90%.
result: 0 (no)

query: Please check the record `O=C1C=C(Cl)C(=O)c2ccccc21` and state if its growth inhibition is at or above 90%.
result: 1 (yes)

query: Please check the record C=C1C(=O)C2=CC1CCC(=O)C1(C)CCC(OC(C)=O)C(C)(C)C1CC2O (stereo not given) and state if its growth inhibition is at or above 90%.
result: 0 (no)

query: Please check the record `NC(=S)N/N=C\c1nccc2c(C(F)(F)F)cccc12` and state if its growth inhibition is at or above 90%.
result: 1 (yes)
